PROCEDURE SUMMARY: total protein half-life in vivo (active degradation + dilution); higher = more stable protein
ASSAY SETUP: E. coli NCM3722 delta-smpB; growth: N-lim chemostat; doubling time 6 h
Threshold rule: total protein half-life in vivo greater than or equal to 4 h is rule met; below that, rule not met.

(Q) Determine whether measured total protein half-life in vivo meets or exceeds 4 h for MEYKDPMHELLSSLEQIVFKDETQKITLTHRTTSCTEIEQLRKGTGLKIDDFARVLGVSVAMVKEWESRRVKPSSAELKLMRLIQANPALSKQLME [P0A9V5]
(A) rule not met

(Q) Determine whether measured total protein half-life in vivo meets or exceeds 4 h for `MNSHNITNESLALALMLVVVAILISHKEKLALEKDILWSVGRAIIQLIIVGYVLKYIFSVDDASLTLLMVLFICFNAAWNAQKRSKYIAKAFISSFIAITVGAGITLAVLILSGSIEFIPMQVIPIAGMIAGNAMVAVGLCYNNLGQRVISEQQQIQEKLSLGATPKQASAILIRDSIRAALIPTVDSAKTVGLVSLPGMMSGLIFAGIDPVKAIKYQIMVTFMLLSTASLSTIIACYLTYRKFYNSRHQLVVTQLKKK`
(A) rule met

(Q) Determine whether measured total protein half-life in vivo meets or exceeds 4 h for `MNALLSNPFKERLRKGEVQIGLWLSSTTAYMAEIAATSGYDWLLIDGEHAPNTIQDLYHQLQAVAPYASQPVIRPVEGSKPLIKQVLDIGAQTLLIPMVDTAEQARQVVSATRYPPYGERGVGASVARAARWGRIENYMAQVNDSLCLLVQVESKTALDNLDEILDVEGIDGVFIGPADLSASLGYPDNAGHPEVQRIIETSIRRIRAAGKAAGFLAVAPDMAQQCLAWGANFVAVGVDTMLYSDALDQRLAMFKSGKNGPRIKGSY`
(A) rule not met

(Q) Determine whether measured total protein half-life in vivo meets or exceeds 4 h for `MKRNLLSSAIIVAIMSLGLTGCDDKKAETETLPPANSQPAAPAPEAKPTEAPVAKAEAKPETPAQPVVDEQAVFDEKMDVYIKCYNKLQIPVQRSLARYADWLKDFKQGPTGEERTVYGIYGISESNLAECEKGVKSAVALTPALQPIDGVAVSYIDAAVALGNTINEMDKYYTQENYKDDAFAKGKTLHQTFLKNLEAFEPVAESYHAAIQEINDKRQLAELKNIEEREGKTFHYYSLAVMISAKQINNLISQDKFDAEAAMKKVSELETLVAQAKEADKGGMNFSFINSAGQYQLEAKKYVRRIRDKVPYSDWDKEQLQDANSSWMVEDSFPRALREYNEMVDDYNSLR`
(A) rule met

(Q) Determine whether measured total protein half-life in vivo meets or exceeds 4 h for `MDIIFYHPTFDTQWWIEALRKAIPQARVRAWKSGDNDSADYALVWHPPVEMLAGRDLKAVFALGAGVDSILSKLQAHPEMLNPSVPLFRLEDTGMGEQMQEYAVSQVLHWFRRFDDYRIQQNSSHWQPLPEYHREDFTIGILGAGVLGSKVAQSLQTWRFPLRCWSRTRKSWPGVQSFAGREELSAFLSQCRVLINLLPNTPETVGIINQQLLEKLPDGAYLLNLARGVHVVEDDLLAALDSGKVKGAMLDVFNREPLPPESPLWQHPRVTITPHVAAITRPAEAVEYISRTIAQLEKGERVCGQVDRARGY`
(A) rule met

// provenance: the supplement of paper PMC11246515
